Catalogue of compounds with associated pIC50
Molecular target: human FSH receptor (Homo sapiens, UniProt P23945)
Sequence (P23945 18-695): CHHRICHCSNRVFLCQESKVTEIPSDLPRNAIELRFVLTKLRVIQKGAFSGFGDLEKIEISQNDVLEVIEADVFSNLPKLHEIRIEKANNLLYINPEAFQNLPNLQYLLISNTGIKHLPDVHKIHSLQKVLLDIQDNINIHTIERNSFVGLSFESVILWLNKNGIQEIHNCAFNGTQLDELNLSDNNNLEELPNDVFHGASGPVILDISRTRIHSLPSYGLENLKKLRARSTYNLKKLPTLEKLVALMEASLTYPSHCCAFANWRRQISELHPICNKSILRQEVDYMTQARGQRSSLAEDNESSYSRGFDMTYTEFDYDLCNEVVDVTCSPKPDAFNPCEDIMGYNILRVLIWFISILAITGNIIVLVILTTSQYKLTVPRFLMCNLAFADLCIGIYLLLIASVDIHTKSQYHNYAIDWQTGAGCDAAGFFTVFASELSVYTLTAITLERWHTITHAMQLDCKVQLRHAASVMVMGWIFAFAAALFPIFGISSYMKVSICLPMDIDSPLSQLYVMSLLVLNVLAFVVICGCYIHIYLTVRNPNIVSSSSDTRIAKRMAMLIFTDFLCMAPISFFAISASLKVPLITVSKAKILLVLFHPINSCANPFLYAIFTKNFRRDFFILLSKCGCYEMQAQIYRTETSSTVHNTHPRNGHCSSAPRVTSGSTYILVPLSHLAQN
Assay: HTRF assay for measuring cAMP in cells
Conditions: hFSHR clone 16 cells (CHO cells stably transfected with the human FSH receptor); in the presence of 1e-9 mol/l hFSH; 37° C. for 2 h; read-out: IC50 (FSH-antagonistic effect in the HTRF assay)
Please express pIC50 as -log10 of the molar concentration.

Known results for compounds:
CC(C)Oc1ccc(C#CCCCO)cc1C(=O)N[C@@H](CO)Cc1c[nH]c2ccccc12	6.30
Cc1ccc(NC(=O)NCC#Cc2ccc(OC(C)C)c(C(=O)N[C@@H](CO)Cc3c[nH]c4ccccc34)c2)cc1	6.70
CC(C)Oc1ccc(C#CCN2CCS(=O)(=O)CC2)cc1C(=O)N[C@@H](CO)Cc1c[nH]c2ccccc12	5.35
CNC(=O)N(C)CC#Cc1ccc(OC(C)C)c(C(=O)N[C@@H](CO)Cc2c[nH]c3ccccc23)c1	5.22

The record that follows has no pIC50 shown yet.
The measured pIC50 associated with `CC(C)Oc1ccc(C#CC(C)(C)C)cc1C(=O)N[C@@H](CO)Cc1c[nH]c2ccccc12` reads 6.22
